# subject of test: GLUT1 (Rattus norvegicus, UniProt P11167)
# Construct: GLUT1, as the major GLUT isoform expressed in brain endothelial cells; endogenous in cells
# Sequence (P11167 whole entry, canonical isoform): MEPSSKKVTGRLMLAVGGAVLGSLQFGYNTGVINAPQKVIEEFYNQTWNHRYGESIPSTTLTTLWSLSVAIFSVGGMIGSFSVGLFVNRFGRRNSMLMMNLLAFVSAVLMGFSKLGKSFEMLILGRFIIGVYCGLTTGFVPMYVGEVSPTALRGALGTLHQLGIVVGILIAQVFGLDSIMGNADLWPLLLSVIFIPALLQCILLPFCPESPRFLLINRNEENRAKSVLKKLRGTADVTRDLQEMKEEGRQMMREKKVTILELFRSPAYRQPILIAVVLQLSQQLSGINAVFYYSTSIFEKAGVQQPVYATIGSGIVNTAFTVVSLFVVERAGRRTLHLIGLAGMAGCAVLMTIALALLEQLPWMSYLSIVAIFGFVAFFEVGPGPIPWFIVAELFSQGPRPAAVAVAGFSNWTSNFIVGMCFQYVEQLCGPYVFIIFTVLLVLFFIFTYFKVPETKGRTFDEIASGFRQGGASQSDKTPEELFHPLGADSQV
# measurement notes: Competitive inhibition of Rb1 uptake by rBMEC by D-glucose (Lineweaver-Burk plot)
# condition description: 100 mM D-glucose, Rb1 30-960 μg/mL, 37°C, 120 min
result type: Ki (µM)
// units = µM; emit number, no label

// OC[C@H]1OC(O)[C@H](O)[C@@H](O)[C@@H]1O (stereo partly shown) : Ki value = 885

###

# measurement notes: Effect of phloretin on distribution of Rb1 in plasma and brain of normal rats
# Format: in vivo, rat
# condition description: rat, brain, intravenous; Rb1 10 mg/kg i.v., 0.5 h, phloretin-treated (5 mg/kg i.v., 1 week); read-out: Brain concentration
result type: concentration at 0.5 h (ng/g)
// units = ng/g; emit number, no label

// CC(C)=CCC[C@](C)(O[C@@H]1O[C@H](CO[C@@H]2O[C@H](CO)[C@@H](O)[C@H](O)[C@H]2O)[C@@H](O)[C@H](O)[C@H]1O)[C@H]1CC[C@]2(C)[C@@H]1[C@H](O)C[C@@H]1[C@@]3(C)CC[C@H](O[C@@H]4O[C@H](CO)[C@@H](O)[C@H](O)[C@H]4O[C@@H]4O[C@H](CO)[C@@H](O)[C@H](O)[C@H]4O)C(C)(C)[C@@H]3CC[C@]12C [Rb1, Ginsenoside Rb1] : concentration at 0.5 h value = 105

###

# measurement notes: Effect of phloretin on distribution of Rb1 in plasma and brain of normal rats
# Assay type: in vivo, rat
# condition description: rat, plasma, intravenous; Rb1 10 mg/kg i.v., 6 h, phloretin-treated (5 mg/kg i.v., 1 week); read-out: Plasma concentration
result type: concentration at 6 h (µg/mL)
// units = µg/mL; emit number, no label

// CC(C)=CCC[C@](C)(O[C@@H]1O[C@H](CO[C@@H]2O[C@H](CO)[C@@H](O)[C@H](O)[C@H]2O)[C@@H](O)[C@H](O)[C@H]1O)[C@H]1CC[C@]2(C)[C@@H]1[C@H](O)C[C@@H]1[C@@]3(C)CC[C@H](O[C@@H]4O[C@H](CO)[C@@H](O)[C@H](O)[C@H]4O[C@@H]4O[C@H](CO)[C@@H](O)[C@H](O)[C@H]4O)C(C)(C)[C@@H]3CC[C@]12C [Rb1, Ginsenoside Rb1] : concentration at 6 h value = 27

###

# measurement notes: Effect of phloretin on distribution of Rb1 in plasma and brain of normal rats
# Type: in vivo, rat
# condition description: rat, plasma, intravenous; Rb1 10 mg/kg i.v., 2 h, phloretin-treated (5 mg/kg i.v., 1 week); read-out: Plasma concentration
# Description: Rats were randomly divided into two groups in 36 of each group. One group served as the control and another group were treated with phloretin. Dose of phloretin was set to be 5 mg/kg. […] The biological samples (100 μL) were placed in a 1.5 mL Eppendorf tube, and mixed with 10 μL IS solution (500 ng/mL) for 3 min by vortexing. […] The lowest limits of quantitation of Rb1 in cell lysate, plasma, and brain homogenate were 1, 2.5, and 1 ng/mL, respectively. […]
result type: concentration at 2 h (ng/mL)
// units = ng/mL; emit number, no label

// CC(C)=CCC[C@](C)(O[C@@H]1O[C@H](CO[C@@H]2O[C@H](CO)[C@@H](O)[C@H](O)[C@H]2O)[C@@H](O)[C@H](O)[C@H]1O)[C@H]1CC[C@]2(C)[C@@H]1[C@H](O)C[C@@H]1[C@@]3(C)CC[C@H](O[C@@H]4O[C@H](CO)[C@@H](O)[C@H](O)[C@H]4O[C@@H]4O[C@H](CO)[C@@H](O)[C@H](O)[C@H]4O)C(C)(C)[C@@H]3CC[C@]12C [Rb1, Ginsenoside Rb1] : concentration at 2 h value = 33200

###

# measurement notes: Effect of phloretin on distribution of Rb1 in plasma and brain of normal rats
# Type: in vivo, rat
# condition description: rat, brain, iv; Rb1 10 mg/kg i.v., 2 h, untreated normal rats; read-out: Brain concentration
result type: concentration at 2 h

// CC(C)=CCC[C@](C)(O[C@@H]1O[C@H](CO[C@@H]2O[C@H](CO)[C@@H](O)[C@H](O)[C@H]2O)[C@@H](O)[C@H](O)[C@H]1O)[C@H]1CC[C@]2(C)[C@@H]1[C@H](O)C[C@@H]1[C@@]3(C)CC[C@H](O[C@@H]4O[C@H](CO)[C@@H](O)[C@H](O)[C@H]4O[C@@H]4O[C@H](CO)[C@@H](O)[C@H](O)[C@H]4O)C(C)(C)[C@@H]3CC[C@]12C [Rb1, Ginsenoside Rb1] : concentration at 2 h value = 194 ng/g

###

# measurement notes: Effect of phloretin on distribution of Rb1 in plasma and brain of normal rats
# Format: in vivo, rat
# condition description: rat, brain, iv; Rb1 10 mg/kg i.v., 6 h, untreated normal rats; read-out: Brain concentration
result type: concentration at 6 h (ng/g)
// units = ng/g; emit number, no label

// CC(C)=CCC[C@](C)(O[C@@H]1O[C@H](CO[C@@H]2O[C@H](CO)[C@@H](O)[C@H](O)[C@H]2O)[C@@H](O)[C@H](O)[C@H]1O)[C@H]1CC[C@]2(C)[C@@H]1[C@H](O)C[C@@H]1[C@@]3(C)CC[C@H](O[C@@H]4O[C@H](CO)[C@@H](O)[C@H](O)[C@H]4O[C@@H]4O[C@H](CO)[C@@H](O)[C@H](O)[C@H]4O)C(C)(C)[C@@H]3CC[C@]12C [Rb1, Ginsenoside Rb1] : concentration at 6 h value = 114

###

# measurement notes: Effect of phloretin on distribution of Rb1 in plasma and brain of normal rats
# Format: in vivo, rat
# condition description: rat, brain, iv; Rb1 10 mg/kg i.v., 0.5 h, untreated normal rats; read-out: Brain concentration
result type: concentration at 0.5 h (ng/g)
// units = ng/g; emit number, no label

// CC(C)=CCC[C@](C)(O[C@@H]1O[C@H](CO[C@@H]2O[C@H](CO)[C@@H](O)[C@H](O)[C@H]2O)[C@@H](O)[C@H](O)[C@H]1O)[C@H]1CC[C@]2(C)[C@@H]1[C@H](O)C[C@@H]1[C@@]3(C)CC[C@H](O[C@@H]4O[C@H](CO)[C@@H](O)[C@H](O)[C@H]4O[C@@H]4O[C@H](CO)[C@@H](O)[C@H](O)[C@H]4O)C(C)(C)[C@@H]3CC[C@]12C [Rb1, Ginsenoside Rb1] : concentration at 0.5 h value = 490
